# system-name: Protein kinase 7 (PK7), Plasmodium falciparum 3D7 (PF3D7_0213400) (UniProt Q7YTF7)
# assay-summary: inhibition of Plasmodium PK7 catalytic activity – biochemical, TCAMS antimalarial set, Kinase-Glo luminescence (AID 1159587)
# particulars: recombinant PfPK7, Kinase-Glo ATP depletion luminescence
Activity calls are given as the source filed them. How the calls were made is not given here.
assay-endpoint: outcome

// known answers, use as guide
compound: O=C(Nc1ccc(-c2nc3ccccc3[nH]2)cc1)c1ccc(-c2cccc([N+](=O)[O-])c2)o1
outcome: inactive
--
compound: CNC(=O)c1ccc2nc(C3CC3)n(CC3CCN(S(=O)(=O)c4cccc(Cl)c4)CC3)c2c1
outcome: inactive
--
compound: Oc1ccc(CNCCCCCCNCCc2ccc(Cl)cc2)cc1O
outcome: inactive
--
compound: COc1ccc2nccc(N3CCC(SCCNCc4ccc5c(n4)NC(=O)CO5)C3)c2n1 (centres undefined)
outcome: inactive
--
compound: O=C(c1cccc(-c2cccc(-c3nc4ccc(F)cc4[nH]3)c2)c1)N1CCCCC1CN1CCC(O)C1 (centres undefined)
outcome: inactive
--
compound: CCN(CCCN1CCCCC1)c1cc(C)nc(Nc2ccc(C(F)(F)F)cc2)n1
outcome: inactive

Report outcome for O=C(Nc1ccc(-c2nc3ccccc3[nH]2)cc1)c1ccc(S(=O)(=O)N2CCc3ccccc32)cc1 please. inactive

Let us now turn to O=C(NCc1ccc(Cl)c(Cl)c1)c1cccc(C2CCCN(Cc3ccc4nc[nH]c4c3)C2)c1 (centres undefined) inactive

Please give the result for CC(C)c1cc2c(ccc3nc(N)nc(N)c32)o1 too. inactive

// same read-out, input: O=c1sn(-c2csc3ccccc23)c2ccccc12 inactive

What do we get for CCN(CC1CCN(CC2(O)CCOCC2)CC1)c1cc(C)nc(Nc2ccc(Cl)cc2)n1 ? inactive

Subsequent entry: COc1ccc(C2C(C(=O)Nc3cc(OC)c(OC)c(OC)c3)c3cc(OC)c(OC)cc3C(=O)N2C)cc1 (centres undefined) inactive

Could you do the same for Cc1ccc(C(=O)Nc2ccc(Nc3ccnc4cc(-c5ccccn5)ccc34)cc2O)cc1 , please? inactive

Let us now turn to Cc1ccc(NC(=O)c2cccc(CN3CCCN(Cc4cccc(O)c4)CC3)c2)cc1 inactive

Can you handle Cc1cccc2[nH]c(-c3ccc(-c4cccc(NC(=O)Nc5ccc6c(c5)OCO6)c4)cc3)nc12 next? inactive

Same again, this time with CCOC(=O)c1ccc(NC(=O)Nc2cccc(-c3ccc(-c4nc5ccc(F)cc5[nH]4)cc3)c2)cc1 inactive

Ok, now CCC(C(=O)Nc1ccccc1)n1nc(-c2ccc(C)c(S(=O)(=O)N3CCCCC3)c2)ccc1=O (centres undefined) inactive

Next compound: CN(C(=O)/C=C/c1cc(C(F)(F)F)ccc1F)C1CCN(CCCCCNC(=O)/C=C/c2ccc(Cl)c(Cl)c2)CC1 inactive

Next entry: CO/C(=C\C=C\c1cc2cc(Cl)c(Cl)cc2[nH]1)C(=O)NCCCN1CCN(c2ccc(OC)cc2)CC1 inactive

====

# maps each entry to its growth inhibition
# assay-summary: antimalarial activity against Dd2 strain (AID 2302);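 further: 0% = DMSO untreated growth and 100% = chloroquine plus artemisinin killed control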
# particulars: P. falciparum Dd2 in RBCs, LDH growth readout, 72 h; at 2 µM; active compounds read high
Your answer should be a plain number; it is taken to be in %.

molecule: CCOC(=O)c1ccc(N(CCCN(CCCN(c2ccc(C(=O)OCC)cc2)S(=O)(=O)c2ccc(C)cc2)CCc2ccc(O)cc2)S(=O)(=O)c2ccc(C)cc2)cc1
assay-endpoint: growth inhibition
unit-tag: %
value-measured: 74
//
molecule: COc1cc(F)c2ncc(Cl)c(C(O)CN3CCC(NC(=O)c4ccc5c(n4)NC(=O)CO5)CC3)c2c1 (stereo not given)
assay-endpoint: growth inhibition
unit-tag: %
value-measured: 100
//
molecule: c1ccc2c(C3CCN(CCCCOc4ccc5c(c4)CCN(CC4CC4)CC5)CC3)c[nH]c2c1
assay-endpoint: growth inhibition
unit-tag: %
value-measured: 97
//
molecule: O=c1[nH]c2ccc3[nH]cccc3c2c1C=Nc1ccc(Cn2ccnc2)cc1
assay-endpoint: growth inhibition
unit-tag: %
value-measured: 85

Bench note: what growth inhibition did COc1cc(-c2cc3cc(Cl)c(Cl)cc3[nH]2)ccc1C(=O)NCCC1CCCN1C (stereo not given) show? 41
